# tested.on: HIV-1
# protocol: Anti-viral activity: syncytium formation (Sup T1) or reverse transcriptase assay (H9)
# Format: cell-based
# measurement.conditions: inhibits proliferation of HIV by 50%; Sup T1 syncytium or H9 reverse transcriptase assay, 37° C; read-out: IC50
outcome.measure: IC50 (nM)
# unit: nM | format: bare number

Query IC50 on HIV-1 for CC(C)[C@H](NC(=O)OCc1ccccc1)C(=O)N[C@@H](Cc1ccccc1)[C@@H](O)[C@H](O)[C@H](Cc1ccccc1)NC(=O)[C@@H](NC(=O)OCc1ccccc1)C(C)C [A-75925, reference compound]
250

---

# protocol: Cytotoxicity in H9 or Sup T1 cells (trypan blue dye exclusion)
# Assay type: cell-based
# measurement.conditions: human; concentration that causes death of cells by 50%; H9 or Sup T1 cells, 37° C; read-out: CT50 (the source's name)
outcome.measure: CC50

Solved cases below.
| compound | CC50 |
| --- | --- |
| CC(C)[C@H](CCc1ccccc1)NC(=O)C[C@@H]1O[C@@H]1[C@H](Cc1ccccc1)NC(=O)[C@H](CC(N)=O)NC(=O)c1ccc2ccccc2n1 | > 100 µM |
| COC(=O)C(CCC(N)=O)NC(=O)C[C@@H]1O[C@@H]1[C@H](Cc1ccccc1)NC(=O)[C@H](CC(N)=O)NC(=O)c1ccc2ccccc2n1 (stereo partly drawn) | > 100 µM |

Now for a further compound.
Which measured CC50 value corresponds to CC[C@H](C)[C@H](NC(=O)C[C@@H]1O[C@@H]1[C@H](CC1CCCCC1)NC(=O)[C@@H](NC(=O)N(C)Cc1ccccn1)C(C)C)C(=O)OC ?
> 100 µM

---

# tested.on: HIV-1 protease (Human immunodeficiency virus type 1 group M subtype B, UniProt P04585)
# Construct: 2.6 nM of HIV-1 protease
# protocol: Assay for inhibitory effect on HIV protease (residual enzyme activity, HPLC of substrate cleavage)
# Type: biochemical
# measurement.conditions: second order rate constant; HIV-1 protease, pH 5.5; read-out: kina /KI (converted)
Our labelling divides records by kinact/KI into ranges: low = under 10000 M⁻¹ s⁻¹, moderate = from 10000 M⁻¹ s⁻¹ up to 40000 M⁻¹ s⁻¹, high = 40000 M⁻¹ s⁻¹ and over

Some solved cases for reference:
| compound | assigned.label |
| --- | --- |
| CC(C)C(Cc1ccccc1)NC(=O)C[C@@H]1O[C@@H]1[C@H](Cc1ccccc1)NC(=O)[C@H](CC(N)=O)NC(=O)c1ccc2ccccc2n1 (stereo partly drawn) [compound 48] | high |
| NC(=O)C[C@H](NC(=O)c1ccc2ccccc2n1)C(=O)N[C@@H](Cc1ccccc1)[C@H]1O[C@H]1CCc1ccccc1 [compound 62] | moderate |
| CC(C)[C@@H](CCCc1ccccc1)NC(=O)C[C@@H]1O[C@@H]1[C@H](Cc1ccccc1)NC(=O)[C@H](CC(N)=O)NC(=O)c1ccc2ccccc2n1 [compound 50] | moderate |
| CC[C@H](C)[C@H](NC(=O)C[C@@H]1O[C@@H]1[C@H](Cc1ccccc1)NC(=O)[C@H](CC(N)=O)NC(=O)c1ccc2ccccc2n1)C(N)=O [compound 27] | high |
| CC[C@H](C)[C@H](NC(=O)C[C@@H]1O[C@@H]1[C@H](Cc1ccccc1)NC(=O)[C@H](CC(N)=O)NC(=O)COc1cccc2ccccc12)C(=O)OC [compound 3] | high |

Band for NC(=O)C[C@H](NC(=O)COc1ccc(F)cc1F)C(=O)N[C@@H](Cc1ccccc1)[C@H]1O[C@H]1CCc1ccccc1 [compound 58] ?
low

Same read-out for CC(C)[C@H](NC(=O)C[C@@H]1O[C@@H]1[C@H](Cc1ccccc1)NC(=O)[C@H](CC(N)=O)NC(=O)c1ccc2ccccc2n1)C(=O)NCc1ccccn1 [compound 19] ?
high

Same read-out for CC[C@H](C)[C@H](NC(=O)OCc1ccccc1)C(=O)N[C@@H](Cc1ccccc1)[C@H]1O[C@H]1CCc1ccccc1 [compound 54] ?
low

Same read-out for NC(=O)C[C@H](NC(=O)c1cnc2ccccc2n1)C(=O)N[C@@H](Cc1ccccc1)[C@H]1O[C@H]1CCc1ccccc1 [compound 63] ?
moderate

Same read-out for CC(C)[C@@H](CCc1ccccc1)NC(=O)C[C@@H]1O[C@@H]1[C@H](Cc1ccccc1)NC(=O)[C@H](CC(N)=O)NC(=O)c1ccc2ccccc2n1 [compound 49] ?
moderate

Same read-out for NC(=O)C[C@H](NC(=O)COc1ccccc1)C(=O)N[C@@H](Cc1ccccc1)[C@H]1O[C@H]1CCc1ccccc1 [compound 57] ?
low

Same read-out for CC[C@H](C)[C@H](NC(=O)C[C@@H]1O[C@@H]1[C@H](Cc1ccccc1)NC(=O)[C@H](CC(N)=O)NC(=O)COc1ccccc1)C(=O)OC [compound 4] ?
moderate

---

# tested.on: HIV-1 protease (Human immunodeficiency virus type 1 group M subtype B, UniProt P04585)
# Construct: 2.6 nM of HIV-1 protease
# protocol: Assay for inhibitory effect on HIV protease (residual enzyme activity, HPLC of substrate cleavage)
# Type: biochemical
# measurement.conditions: HIV-1 protease 2.6 nM, pH 5.5; rate constant of covalent bond formation; read-out: kina (converted)
outcome.measure: kinact
State the value, then name its unit.

Solved cases below.
| molecule | obs.value |
| --- | --- |
| NC(=O)CC[C@H](NC(=O)OCc1ccccc1)C(=O)N[C@@H](Cc1ccccc1)[C@H]1O[C@H]1CCc1ccccc1 [compound 55] | 0.00367 s⁻¹ |
| NC(=O)C[C@H](NC(=O)c1ccc2ccccc2n1)C(=O)N[C@@H](Cc1ccccc1)[C@H]1O[C@H]1CNC(=O)[C@H](Cc1ccccc1)NC=O [compound 92] | 0.00333 s⁻¹ |

Now for a further molecule.
Which measured kinact value corresponds to CC(C)(C)OC(=O)NC[C@@H]1O[C@@H]1[C@H](Cc1ccccc1)NC(=O)[C@H](CC(N)=O)NC(=O)c1ccc2ccccc2n1 [compound 83] ?
0.02 s⁻¹

---

# tested.on: HIV-1 protease (Human immunodeficiency virus type 1 group M subtype B, UniProt P04585)
# Construct: 2.6 nM of HIV-1 protease
# protocol: Assay for inhibitory effect on HIV protease (residual enzyme activity, HPLC of substrate cleavage)
# Format: biochemical
# measurement.conditions: HIV-1 protease 2.6 nM, pH 5.5; inhibition constant
# Protocol: The inhibitory effect on HIV protease of the compounds of the present invention was determined by the following method. […] The inhibition constant was calculated according to the following equation: [formula] wherein: kobs is a rate constant indicating the rate of reduction in enzyme activity according to the elapsed time under the presence of a given concentration of inhibitor, […]
outcome.measure: Ki

| molecular.string | Ki |
| --- | --- |
| CC[C@H](C)[C@H](NC(=O)C[C@@H]1O[C@@H]1[C@H](Cc1ccccc1)NC(=O)[C@H](CC(N)=O)NC(=O)COc1cccc2ccccc12)C(=O)OC | 40 nM |
| NC(=O)C[C@H](NC(=O)c1ccc2ccccc2n1)C(=O)N[C@@H](Cc1ccccc1)[C@H]1O[C@H]1CCc1ccccc1 | 130 nM |

Now for a further molecule.
Which measured Ki value corresponds to CC[C@H](C)[C@H](NC(=O)C[C@@H]1O[C@@H]1[C@H](Cc1ccccc1)NC(=O)[C@@H](NC(=O)N(C)Cc1ccccn1)C(C)C)C(=O)OC ?
> 10000 nM

---

# tested.on: HIV-1 protease (Human immunodeficiency virus type 1 group M subtype B, UniProt P04585)
# Construct: 2.6 nM of HIV-1 protease
# protocol: Assay for inhibitory effect on HIV protease (residual enzyme activity, HPLC of substrate cleavage)
# Assay type: biochemical
# measurement.conditions: HIV-1 protease 2.6 nM, pH 5.5; inhibition constant
outcome.measure: Ki
State the value, then name its unit.

Solved cases below.
| molecule | tested.on | obs.value |
| --- | --- | --- |
| CC(C)[C@H](NC(=O)OCc1cccnc1)C(=O)NC[C@@H]1O[C@@H]1[C@H](Cc1ccccc1)NC(=O)[C@@H](NC(=O)OCc1cccnc1)C(C)C [compound 78] | HIV-1 protease (Human immunodeficiency virus type 1 group M subtype B, UniProt P04585) | 720 nM |
| CC(C)[C@H](NC(=O)OCc1ccccc1)C(=O)NC[C@@H]1O[C@@H]1[C@H](CC1CCCCC1)NC(=O)[C@@H](NC(=O)OCc1ccccc1)C(C)C [compound 86] | HIV-1 protease (Human immunodeficiency virus type 1 group M subtype B, UniProt P04585) | 50 nM |

Now for a further molecule.
Which measured Ki value corresponds to NC(=O)C[C@H](NC(=O)[C@H](Cc1ccccc1)NC(=O)OCc1ccccc1)C(=O)N[C@@H](Cc1ccccc1)[C@H]1O[C@H]1CCc1ccccc1 [compound 68] ?
4000 nM

---

# tested.on: HIV-1 protease (Human immunodeficiency virus type 1 group M subtype B)
# Construct: 2.6 nM of HIV-1 protease
# protocol: Assay for inhibitory effect on HIV protease (residual enzyme activity, HPLC of substrate cleavage)
# Format: biochemical
# measurement.conditions: HIV-1 protease 2.6 nM, pH 5.5; inhibition constant
Each entry below carries its reported Ki.
# unit: nM | format: bare number

Solved cases below.
| molecular.string | result.units | Ki |
| --- | --- | --- |
| CC[C@H](C)[C@H](NC(=O)C[C@@H]1O[C@@H]1[C@H](Cc1ccccc1)NC(=O)[C@H](CC(N)=O)NC(=O)c1ccc2ccccc2n1)C(=O)NCc1ccccc1 | nM | 60 |
| NC(=O)C[C@H](NC(=O)COc1ccccc1)C(=O)N[C@@H](Cc1ccccc1)[C@H]1O[C@H]1CCc1ccccc1 | nM | 12500 |
| CC(C)CC[C@@H]1O[C@@H]1[C@H](Cc1ccccc1)NC(=O)[C@H](CC(N)=O)NC(=O)OCc1ccccc1 | nM | 550 |
| CC[C@H](C)[C@H](NC(=O)C[C@@H]1O[C@@H]1[C@H](Cc1ccccc1)NC(=O)[C@H](CC(N)=O)NC(=O)COc1ccccc1)C(=O)OC | nM | 60 |
| CC(C)[C@H](NC(=O)OCc1ccccn1)C(=O)NC[C@@H]1O[C@@H]1[C@H](Cc1ccccc1)NC(=O)[C@@H](NC(=O)OCc1ccccn1)C(C)C | nM | 100 |

Which measured Ki value corresponds to CC[C@H](C)[C@H](NC(=O)C[C@@H]1O[C@@H]1[C@H](CC1CCCCC1)NC(=O)[C@H](CC(N)=O)NC(=O)c1ccc2ccccc2n1)C(=O)OC ?
92
